- tested-on: (NVDP)3(NANP)2 (Plasmodium falciparum)
- experiment: BLI, target on sensor
assay-metric: Kd (nM)
Report as a plain number; the unit nM is understood.

Take a look at these entries with their results.
1. AB-007029 (antibody, V domains shown) VH: QVQLVESGGGVVQPGRSLRLSCTASGFTFSTYAMHWVRQSPGQGLQWVAVISYHSTNKYYEDSVRGRFTISRDNSKNTLYLQMNSLRAEDTAVYYCARDGYSSSFFDFWGQGTLVTVSS VL: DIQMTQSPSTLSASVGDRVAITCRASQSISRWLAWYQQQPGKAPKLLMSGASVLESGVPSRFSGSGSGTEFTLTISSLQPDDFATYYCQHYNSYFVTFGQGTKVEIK; 6.67
2. AB-007035 (antibody, V domains shown) VH: QMQLVESGGGVVQPGRSLRLSCTASGFTFSSYAMHWVRQSPGQGLQWVAVISYHSTNKYYEDSVRGRFTISRDNSKNTLYLQMNSLRAEDTAVYYCARDGYSSSFFDFWGQGTLVTVSS VL: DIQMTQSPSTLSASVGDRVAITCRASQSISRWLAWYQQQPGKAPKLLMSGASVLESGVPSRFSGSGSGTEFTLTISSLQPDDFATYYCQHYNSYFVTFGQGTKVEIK; 5.09
3. AB-007034 (antibody, V domains shown) VH: QVQLVESGGGVVQPGRSLRLSCAASGFTFSTYAMHWVRQAPGQGLEWVAVISYHSTNKYYADSVRGRFTISRDNSKNTLYLQMNSLRAEDTAVYYCARDGYSSSFFDFWGQGTLVTVSS VL: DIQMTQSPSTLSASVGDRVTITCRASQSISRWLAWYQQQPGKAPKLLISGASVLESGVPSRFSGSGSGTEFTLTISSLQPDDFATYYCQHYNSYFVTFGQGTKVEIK; 6.14
4. AB-007065 (antibody, V domains shown) VH: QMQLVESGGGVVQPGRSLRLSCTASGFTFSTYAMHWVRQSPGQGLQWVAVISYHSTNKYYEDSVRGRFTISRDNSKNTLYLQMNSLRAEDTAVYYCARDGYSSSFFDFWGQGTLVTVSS VL: DIQMTQSPSTLSASVGDRVAITCRASQSISRWLAWYQQQPGKAPKLLMSKASVLESGVPSRFSGSGSGTEFTLTISSLQPDDFATYYCQHYNSYFVTFGQGTKVEIK; 9.71

Here's the next entry for you.
get_value(item= AB-007048 (antibody, V domains shown) VH: QMQLVESGGGVVQPGRSLRLSCTASGFTFSTYSMHWVRQSPGQGLQWVAVISYHSTNKYYEDSVRGRFTISRDNSKNTLYLQMNSLRAEDTAVYYCARDGYSSSFFDFWGQGTLVTVSS VL: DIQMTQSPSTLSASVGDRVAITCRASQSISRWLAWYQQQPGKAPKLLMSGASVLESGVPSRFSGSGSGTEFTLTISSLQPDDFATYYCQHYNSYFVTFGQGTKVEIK , readout=Kd) returns 34.6
